# TEST_PROTOCOL: Oral bioavailability in Sprague-Dawley rat at 5 mg/kg
# Assay type: ADME, organism-based
# RECORDED_CONDITIONS: in vivo
MEASUREMENT_NAME: bioavailability

C#C[C@]1(CO)O[C@@H](n2cnc3c(N)nc(F)nc32)C[C@@H]1O [ISLATRAVIR]; > 100%

* * *

# TEST_PROTOCOL: AUC (0 to infinity) in Sprague-Dawley rat at 5 mg/kg, po
# Format: ADME, organism-based
# Parameters: dose 5 mg/kg, time infinity, route oral
# RECORDED_CONDITIONS: in vivo
MEASUREMENT_NAME: AUC(0-inf) (µM·h)

C#C[C@]1(CO)O[C@@H](n2cnc3c(N)nc(F)nc32)C[C@@H]1O; 5
